protocol_text: HILIC, Waters ACQUITY UPLC BEH Amide, 100 × 2.1 mm, 1.7 µm; A: water + 0.125% formic acid + 10 mM ammonium formate; B: 5% water + 95% acetonitrile + 0.125% formic acid + 10 mM ammonium formate; gradient (min/%B) 0/100 2/100 7.7/70 9.5/40 10.25/30 12.75/100 17/100
particulars: stereoisomer not certain
outcome_measure: LC retention time (min)
Write down the numeric answer in min and omit the unit.

Input line: Would you kindly share the measured LC retention time for CC12Cc3cn[nH]c3CC1CCC1C2CCC2(C)C1CCC2(C)O (stereo not drawn) ?
Output line: 1.19

Input line: // next record CN1C(C(=O)Nc2ccccn2)=C(O)c2ccccc2S1(=O)=O
Output line: 1.02

Input line: // next record Cc1ccccc1-n1c(C)nc2ccccc2c1=O
Output line: 1.1
